Ref: paper PMC6445228

Test system: T. gondii RH-2 F tachyzoites
measurement_notes: Five-day growth inhibition assay (tachyzoite growth, colorimetric)
Type: cell-based, Toxoplasma gondii
experimental_setup: Toxoplasma gondii; 120 h, T. gondii RH-2 F in HFF, three experiments; read-out: IC50, median inhibitory concentration, a measure of tachyzoite inhibition
readout_name: pIC50
Worth noting: pIC50 values are minus log10 of concentrations stated in mol/L.

1) CCCCC(CC)=NN=C1SCC(=O)N1Cc1cccc(F)c1 4.74
2) CCCCC(CC)=NN=C1SCC(=O)N1Cc1ccc(Cl)cc1 4.29
3) CCCCC(CC)=NN=C1SCC(=O)N1Cc1cccc(Cl)c1 4.72

Query block: I am curious: what pIC50 value has been reported for CCCCC(CC)=NN=C1SCC(=O)N1Cc1ccccc1F ?
Result block: 4.62

Query block: Same for CCCCC(CC)=NN=C1SCC(=O)N1Cc1ccccc1[N+](=O)[O-]
Result block: 4.70

Query block: Same for CC(=NN=C1SCC(=O)N1Cc1cccc(F)c1)c1cccs1
Result block: 4.35

Query block: Same for CC(=NN=C1SCC(=O)N1Cc1ccc(Cl)cc1)c1cccs1
Result block: 4.09

Query block: Same for CC(=NN=C1SCC(=O)N1Cc1ccccc1F)c1cccs1
Result block: 4.60

Query block: Same for CCCCC(CC)=NN=C1SCC(=O)N1Cc1ccc(F)cc1
Result block: 4.54

Query block: Same for CC(=NN=C1SCC(=O)N1Cc1cccc(Cl)c1)c1cccs1
Result block: 4.29

* * *

System: human foreskin fibroblast (HFF)
measurement_notes: Five-day growth inhibition assay, host cell cytotoxicity
experimental_setup: 120 h, HFF cells, top concentration 320 μM
readout_name: TD50, median toxicity dose, a measure of cytotoxicity against host cells

The cases that follow already have their TD50, median toxicity dose, a measure of cytotoxicity against host cells on record.
1) CC(=NN=C1SCC(=O)N1Cc1cccc2ccccc12)c1ccc[cH-]1.[Fe+2].c1cc[cH-]c1 ≥320 µM
2) CC(=NN=C1SCC(=O)N1CN1C(=O)c2ccccc2C1=O)c1ccc[cH-]1.[Fe+2].c1cc[cH-]c1 138 µM
3) CC(=NN=C1SCC(=O)N1Cc1ccccc1F)c1ccc[cH-]1.[Fe+2].c1cc[cH-]c1 ≥320 µM
4) CC(=NN=C1SCC(=O)N1Cc1ccc([N+](=O)[O-])cc1)c1ccc[cH-]1.[Fe+2].c1cc[cH-]c1 217 µM
5) CC(=NN=C1SCC(=O)N1Cc1ccc(Cl)cc1)c1ccc[cH-]1.[Fe+2].c1cc[cH-]c1 ≥320 µM

Query block: Missing value: TD50, median toxicity dose, a measure of cytotoxicity against host cells, human foreskin fibroblast (HFF), entry CC(=NN=C1SCC(=O)N1Cc1ccccc1[N+](=O)[O-])c1ccc[cH-]1.[Fe+2].c1cc[cH-]c1 . Fill in?
Result block: ≥320 µM

Query block: Same for CC(=NN=C1SCC(=O)N1Cc1ccc(F)cc1)c1ccc[cH-]1.[Fe+2].c1cc[cH-]c1
Result block: ≥320 µM

Query block: Same for CC(=NN=C1SCC(=O)N1Cc1ccccc1Cl)c1ccc[cH-]1.[Fe+2].c1cc[cH-]c1
Result block: ≥320 µM

* * *

Test system: T. gondii RH-2 F tachyzoites
measurement_notes: Five-day growth inhibition assay (tachyzoite growth, colorimetric)
Format: cell-based, Toxoplasma gondii
experimental_setup: Toxoplasma gondii; 120 h, T. gondii RH-2 F in HFF, three experiments; read-out: IC50, median inhibitory concentration, a measure of tachyzoite inhibition
readout_name: pIC50
Worth noting: pIC50 values are minus log10 of concentrations stated in mol/L.

molecule	assayed_system	test_value
CCCCC(CC)=NN=C1SCC(=O)N1CN1C(=O)c2ccccc2C1=O	T. gondii RH-2 F tachyzoites	4.06

Query block: Missing value: pIC50, T. gondii RH-2 F tachyzoites, entry CC(=NN=C1SCC(=O)N1Cc1ccc(F)cc1)c1cccs1 . Fill in?
Result block: 4.14

Query block: Same for CC(=NN=C1SCC(=O)N1Cc1ccccc1[N+](=O)[O-])c1cccs1
Result block: 4.43

Query block: Same for O=C1C(O)=C([C@H]2CC[C@H](c3ccc(Cl)cc3)CC2)C(=O)c2ccccc21 [Atovaquone, reference compound]
Result block: 6.70
